Test Target: Protein kinase C theta type (Homo sapiens, UniProt Q04759)
Sequence (Q04759 whole entry): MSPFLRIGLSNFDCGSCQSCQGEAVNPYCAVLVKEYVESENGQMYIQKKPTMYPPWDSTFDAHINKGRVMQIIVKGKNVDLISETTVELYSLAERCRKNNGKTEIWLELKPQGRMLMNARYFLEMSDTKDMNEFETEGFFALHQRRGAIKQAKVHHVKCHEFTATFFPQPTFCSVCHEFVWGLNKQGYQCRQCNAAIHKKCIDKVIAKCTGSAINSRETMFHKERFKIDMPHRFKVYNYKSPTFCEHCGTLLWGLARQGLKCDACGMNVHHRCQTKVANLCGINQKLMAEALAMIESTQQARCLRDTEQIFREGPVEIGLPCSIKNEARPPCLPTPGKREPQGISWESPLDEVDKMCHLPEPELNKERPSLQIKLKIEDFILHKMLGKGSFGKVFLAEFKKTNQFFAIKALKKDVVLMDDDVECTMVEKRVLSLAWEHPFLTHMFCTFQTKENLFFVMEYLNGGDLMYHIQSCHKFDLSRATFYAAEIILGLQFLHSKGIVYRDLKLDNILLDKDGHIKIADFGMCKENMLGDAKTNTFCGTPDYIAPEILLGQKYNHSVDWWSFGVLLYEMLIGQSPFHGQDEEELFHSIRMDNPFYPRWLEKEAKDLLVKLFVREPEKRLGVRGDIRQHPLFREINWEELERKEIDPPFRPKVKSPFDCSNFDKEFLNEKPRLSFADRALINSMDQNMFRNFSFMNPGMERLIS
Parameter: pIC50. Scope: all listed entries.
// pIC50: -log10(molar conc.)

CN1CCCCOc2ccnc3[nH]c(=O)n(c23)-c2nc1ccc2Cl	9.06
O=c1[nH]c2ncccc2n1-c1nc(N2CCCNCC2)ccc1Cl	7.74
O=c1[nH]c2ncccc2n1-c1nc(N2CCCNCC2)ccc1F	7.00

Then this compound:
Query :: # lookup: pIC50 of N#Cc1ccc(N2CCNCC2c2ccccc2)nc1-n1c(=O)[nH]c2ncccc21 (racemic)
Result :: 8.20
